- Target Desc: GDP-bound KRAS protein (aa 1-169), containing both G12D and C118A amino acid substitutions (Homo sapiens (Human), UniProt P01116, C118A/G12D)
- Sequence (P01116 other isoform, or with tags, fused parts or gaps G12D/C118A): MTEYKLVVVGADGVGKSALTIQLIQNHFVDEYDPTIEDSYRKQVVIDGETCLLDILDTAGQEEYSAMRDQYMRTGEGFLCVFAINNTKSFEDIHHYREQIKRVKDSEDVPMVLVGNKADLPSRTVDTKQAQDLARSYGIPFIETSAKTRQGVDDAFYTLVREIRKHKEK
- Experiment Summary: KRAS G12D Coupled Nucleotide Exchange Assay
- Format: biochemical
- Measurement Context: read-out: KRAS G12D Coupled Exchange IC50
Measure Name: IC50

compound=C[C@@]12CCCN(C1)c1nc(OC[C@@]34CCCN3C[C@H](F)C4)nc3c(F)c(ncc13)-c1cccc3ccc(F)c(c13)CC[C@H](F)C(=O)N2 val="3 nM"
compound=C[C@@]12CCCN(C1)c1nc(OC[C@@]34CCCN3C[C@H](F)C4)nc3c(F)c(ncc13)-c1c(c(Cl)cc3[nH]ncc13)CCCOC(=O)O2 val="2 nM"

Could you now consider this next compound?
Data request: Item "[2H]C([2H])([2H])[C@@]12COCCN(C1)c1nc(OC[C@@]34CCCN3C[C@H](F)C4)nc3c(F)c(ncc13)-c1c(c(Cl)cc3[nH]ncc13)CCCOC(=O)O2" : provide IC50
Data returned: 1 nM

---

- Target Desc: GDP-bound KRAS protein (aa 1-169), containing both G12D and C118A amino acid substitutions (Homo sapiens (Human), UniProt P01116, C118A/G12D)
- Experiment Summary: KRAS G12D Coupled Nucleotide Exchange Assay
- Assay type: biochemical
- Measurement Context: read-out: KRAS G12D Coupled Exchange IC50
Measure Name: IC50 (nM)
The answer is to be given in nM; state only the numeric part.

Consider the following illustrative entries.
compound="CN1CCC[C@H]1COc1nc2c3cnc(c(F)c3n1)-c1c(c(Cl)cc3[nH]ncc13)CCCOCC(=O)N1CC[C@@H]3CCN2C[C@@H]31 [Example 267]" val=2
compound="CN(C)CC1(COc2nc3c4cnc(c(F)c4n2)-c2c(c(Cl)cc4[nH]ncc24)CCCOC(=O)O[C@]2(C)COCCN3C2)CC1 (single isomer, unassigned) [Example 331]" val=3
compound="Cc1cc2[nH]ncc2c2c1[C@H]1C[C@H]1COCC[C@@H]1CCCN(C1)c1nc(OC[C@@]34CCCN3C[C@H](F)C4)nc3c(F)c-2ncc13 [Example 153]" val=3
compound="O=C1OCCC2CCc3cc4[nH]ncc4c(c32)-c2ncc3c(nc(OC[C@@]45CCCN4C[C@H](F)C5)nc3c2F)N2CCC[C@H](C2)O1 (stereo partly drawn) [Example 125]" val=5
compound="Fc1c2ncc3c(nc(OC[C@@]45CCCN4C[C@H](F)C5)nc13)N1CCC[C@H](C1)Cn1ncc(n1)/C=C\\c1c(Cl)cc3[nH]ncc3c1-2 [Example 155]" val=5
compound="O=C1CCCc2c(F)ccc3cccc(c23)-c2ncc3c(nc(OC[C@@]45CCCN4C[C@H](F)C5)nc3c2F)N2CCCC[C@H](C2)N1 [Example 69]" val=20

Data request: Item O=C1OCCCc2c(Cl)cc3[nH]ncc3c2-c2ncc3c(nc(OC[C@@]45CCCN4C[C@H](F)C5)nc3c2F)N2CCOCC3(CC(C3)O1)C2 [Example 313] : provide IC50
Data returned: 11

Data request: Item Cc1cc2[nH]ncc2c2c1CCC[C@@H](O)CC[C@@H]1CCCN(C1)c1nc(OC[C@@]34CCCN3C[C@H](F)C4)nc3c(F)c-2ncc13 [Example 237] : provide IC50
Data returned: 10
